Assay: Magnitude of colour change (light absorbance) dry vs damp for colour-formers dip-coated on MDI and TDI HPU foam (Example 25)
Details: MDI HPU foam; light absorbance damp versus dry
metric: Enhancement

{"compound": "CCN(CC)c1ccc2c(c1)Oc1cc(C)c(Nc3ccc(C)cc3C)cc1C21OC(=O)c2ccccc21 (stereo not shown)", "metric": "Enhancement", "val": 6.8}
{"compound": "CCCCN(CCCC)c1ccc2c(c1)Oc1cc(C)c(Nc3ccccc3)cc1C21OC(=O)c2ccccc21 (stereo not shown)", "metric": "Enhancement", "val": 5.7}

P = CCN(CC)c1ccc2c(c1)Oc1cc(C)c(Nc3ccccc3)cc1C21OC(=O)c2ccccc21 (stereo not shown)
Q = CCN(CC)c1ccc(-c2nc(Oc3ccc(C(C)(C)c4ccc(Oc5nc(-c6ccc(N(CC)CC)cc6)nc6ccccc56)cc4)cc3)c3ccccc3n2)cc1
Looking only at measured Enhancement, which entry is lower, P or Q ? Pick one; state its label.
Q

---

Experiment: Magnitude of colour change (light absorbance) dry vs damp for colour-formers dip-coated on MDI and TDI HPU foam (Example 25)
Settings: TDI HPU foam; light absorbance damp versus dry
metric: Enhancement

Below, each entry is followed by its recorded Enhancement result.
{"compound": "CCN(CCC(C)C)c1ccc2c(c1)Oc1cc(C)c(Nc3ccccc3)cc1C21OC(=O)c2ccccc21 (stereo not shown) [WinCon-205]", "Enhancement": 10.3}
{"compound": "CCCCN(CCCC)c1ccc2c(c1)Oc1cc(C)c(Nc3ccccc3)cc1C21OC(=O)c2ccccc21 (stereo not shown) [WinCon-2]", "Enhancement": 8.1}
{"compound": "CCN(CC)c1ccc2c(c1)Oc1cc(C)c(Nc3ccc(C)cc3C)cc1C21OC(=O)c2ccccc21 (stereo not shown) [WinCon-15]", "Enhancement": 9.3}

P = CCN(CC)c1ccc2c(c1)Oc1cc(C)c(Nc3ccccc3)cc1C21OC(=O)c2ccccc21 (stereo not shown) [WinCon-1]
Q = CCN(CC)c1ccc(-c2nc(Oc3ccc(C(C)(C)c4ccc(Oc5nc(-c6ccc(N(CC)CC)cc6)nc6ccccc56)cc4)cc3)c3ccccc3n2)cc1 [Pergascript Yellow I 3R]
Looking only at measured Enhancement, which entry is lower, P or Q ? Pick one; state its label.
Q

I = CCN(CC)c1ccc2c(c1)Oc1ccc(N(Cc3ccccc3)Cc3ccccc3)cc1C21OC(=O)c2ccccc21 (stereo not shown) [WinCon Green, 2-dibenzylamino-6-diethylaminofluoran]
II = CN(C)c1ccc(C2(c3ccc(N(C)C)cc3)OC(=O)c3cc(N(C)C)ccc32)cc1 [Crystal Violet Lactone, crystal violet lactone]
Looking only at measured Enhancement, which entry is lower, I or II ? Pick one; state its label.
I
(I: 7.0, II: 14.8)

The measured values listed here are drawn from patent US9504421B2.
